meta.source: patent US20230250160A1

tested-system: T1, Human Serum Albumin (human, UniProt P02768 25-609)
T1 construct: also called HSA
T1 sequence (P02768 25-609 limits assumed): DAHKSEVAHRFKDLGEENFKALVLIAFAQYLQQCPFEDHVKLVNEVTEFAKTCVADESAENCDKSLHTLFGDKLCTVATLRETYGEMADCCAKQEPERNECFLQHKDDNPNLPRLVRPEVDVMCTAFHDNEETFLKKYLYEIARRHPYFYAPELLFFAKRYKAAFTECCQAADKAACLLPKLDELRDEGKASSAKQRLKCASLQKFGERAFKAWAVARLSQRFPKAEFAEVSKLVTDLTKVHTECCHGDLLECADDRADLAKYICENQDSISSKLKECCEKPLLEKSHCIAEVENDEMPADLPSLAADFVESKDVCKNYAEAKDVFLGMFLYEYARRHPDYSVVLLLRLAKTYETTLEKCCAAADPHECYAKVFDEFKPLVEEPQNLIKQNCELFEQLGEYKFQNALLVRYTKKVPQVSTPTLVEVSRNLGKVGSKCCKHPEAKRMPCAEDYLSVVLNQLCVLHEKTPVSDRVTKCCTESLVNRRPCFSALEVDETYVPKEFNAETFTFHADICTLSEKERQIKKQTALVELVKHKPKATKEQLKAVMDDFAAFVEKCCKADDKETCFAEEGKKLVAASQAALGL
assay-details: SPR Biacore T200, HSA on CM5 chip, ADAPT injected, 1:1 fit
# Lookup of reported koff keyed by entry
Lab book: enter the figure in s⁻¹, no units written.

Please review the entries below; each comes with its answer.
INSERT INTO measurements (binder, readout_label, units_text, data_value) VALUES
  ('LWWAKVSAIKELQAYGVSDFYYMLITKAKTVEGVEALKLHILAALP (designed binder) [ADAPT variant MYDGF_08]', 'koff', 's⁻¹', 0.00028),
  ('LAIAKAYAQYELSFYGVSDFYRELIVKAKTVEGVEALKLHILAALP (designed binder, also called INS_02) [ADAPT variant Insulin_02]', 'koff', 's⁻¹', 0.00093),
  ('LSKAKAQAWHELYYYGVSDFYLSLIDKAKTVEGVEALKLHILAALP (designed binder) [ADAPT variant CRP_23]', 'koff', 's⁻¹', 0.007),
  ('LYHAKWMASLELAKYGVSDFYWNLISKAKTVEGVEALKLHILAALP (designed binder) [ADAPT variant REN_01]', 'koff', 's⁻¹', 0.00027),
  ('LTVAKFWALTELQEYGVSDFYANLITKAKTVEGVEALKLHILAALP (designed binder) [ADAPT variant PSA_01]', 'koff', 's⁻¹', 0.0012);

Next up:
Prompt: Answer with the recorded koff for the binder listed here: LWAAKDDADWELWQYGVSDFYRALIWKAKTVEGVEALKLHILAALP (designed binder, also called ANG_6) [ADAPT variant ANG_06]
Completion: 2.6e-05
